pEC50 for assorted compounds
# ASSAY_SUMMARY: Inhibition of NS5A in HCV genotype 1b Con1 infected in human HuH7 replicon cells assessed as reduction in viral replication after 3 days by luciferase reporter gene assay
pEC50: −log10 of the molar value.
MEASURED_PROPERTY: pEC50

| COMPOUND | RECORDED_RESULT |
| --- | --- |
| COC[C@H]1C[C@@H](c2nc3ccc4cc5c(cc4c3[nH]2)OCc2cc(-c3cnc([C@@H]4CCCN4C(=O)[C@@H](NC(=O)OC)C(C)C)[nH]3)ccc2-5)N(C(=O)[C@@H](NC(=O)OC)C(C)C)C1 | 10.59 |
| COC(=O)N[C@H](C(=O)N1CCC[C@H]1c1ncc(-c2cc3c4c(c2)OCc2cc(-c5cnc([C@@H]6CCCN6C(=O)[C@@H](NC(=O)OC)C6CCCC6)[nH]5)cc(c2-4)OC3)[nH]1)C1CCCC1 | 10.66 |
| COC(=O)N[C@H](C(=O)N1CCC[C@H]1c1ncc(-c2ccc3c(c2)COc2cc4c(ccc5nc([C@@H]6CC[C@H](C)N6C(=O)[C@@H](NC(=O)OC)C(C)C)[nH]c54)cc2-3)[nH]1)C(C)C | 10.74 |
| COC(=O)N[C@H](C(=O)N1CCC[C@H]1c1ncc(-c2cc3c4c(c2)OCc2cc(-c5cnc([C@@H]6CCCN6C(=O)[C@H](NC(=O)OC)c6ccccc6)[nH]5)cc(c2-4)OC3)[nH]1)C(C)C | 10.51 |
| COC(=O)N[C@@H](C(=O)N1C[C@@H](C)C[C@H]1c1ncc(-c2cc3c4c(c2)OCc2cc(-c5cnc([C@@H]6C[C@H](C)CN6C(=O)[C@H](NC(=O)OC)c6ccccc6)[nH]5)cc(c2-4)OC3)[nH]1)c1ccccc1 | 10.70 |
| COC(=O)N[C@H](C(=O)N1CCC[C@H]1c1ncc(-c2cc3c4c(c2)COc2cc(-c5cnc([C@@H]6CCCN6C(=O)[C@@H](NC(=O)OC)C(C)C)[nH]5)cc(c2-4)CC3)[nH]1)C(C)C | 10.55 |
| COC(=O)N[C@H](C(=O)N1CCC[C@H]1c1ncc(-c2ccc3c(c2)COc2c-3ccc3c2ccc2nc([C@@H]4CCCN4C(=O)[C@@H](NC(=O)OC)C(C)C)[nH]c23)[nH]1)C(C)C | 10.77 |
| COC(=O)N[C@H](C(=O)N1[C@@H](C)CC[C@H]1c1nc2ccc3cc4c(cc3c2[nH]1)OCc1cc(-c2cnc([C@@H]3C[C@H](C)CN3C(=O)[C@H](NC(=O)OC)c3ccccc3)[nH]2)ccc1-4)C(C)C | 11.30 |
| COC(=O)NC(C(=O)N1CCC[C@H]1c1ncc(-c2cc3c4c(c2)OCc2cc(-c5cnc([C@@H]6CCCN6C(=O)[C@@H](NC(=O)OC)C(C)C)[nH]5)cc(c2-4)OC3)[nH]1)c1cccnc1 (some centres undefined) | 9.24 |

----------
pEC50 for assorted molecules
# ASSAY_SUMMARY: Inhibition of NS5A in HCV genotype 4a ED43 infected in human HuH7 replicon cells assessed as reduction in viral replication after 3 days by luciferase reporter gene assay
pEC50: −log10 of the molar value.
MEASURED_PROPERTY: pEC50

| MOLECULE | RECORDED_RESULT |
| --- | --- |
| COC[C@H]1C[C@@H](c2ncc(-c3ccc4c(c3)COc3cc5c(ccc6nc([C@@H]7C[C@H](C)CN7C(=O)[C@@H](NC(=O)OC)C(C)C)[nH]c65)cc3-4)[nH]2)N(C(=O)[C@H](NC(=O)OC)c2ccccc2)C1 | 10.96 |
| COC[C@H]1C[C@@H](c2ncc(-c3ccc4c(c3)COc3cc5c(ccc6nc([C@@H]7C[C@H]8C[C@@H]8N7C(=O)[C@@H](NC(=O)OC)C(C)C)[nH]c65)cc3-4)[nH]2)N(C(=O)[C@H](NC(=O)OC)c2ccccc2)C1 | 11.05 |
| COC(=O)N[C@H](C(=O)N1CCC[C@H]1c1ncc(-c2ccc3c(c2)COc2cc4c(ccc5nc([C@@H]6CC[C@H](C)N6C(=O)[C@@H](NC(=O)OC)C(C)C)[nH]c54)cc2-3)[nH]1)C(C)C | 10.70 |
| COC[C@H]1C[C@@H](c2nc(-c3ccc4c(c3)COc3cc5c(ccc6nc([C@@H]7CC[C@H](C)N7C(=O)[C@@H](NC(=O)OC)C(C)C)[nH]c65)cc3-4)c[nH]2)N(C(=O)[C@H](NC(=O)OC)c2ccccc2)C1 [GS-5816] | 11.05 |
| COC(=O)N[C@H](C(=O)N1C[C@@H](C)C[C@H]1c1nc2ccc3cc4c(cc3c2[nH]1)OCc1cc(-c2cnc([C@@H]3C[C@H](C)CN3C(=O)[C@H](NC(=O)OC)c3ccccc3)[nH]2)ccc1-4)C(C)C | 10.20 |

----------
# ASSAY_SUMMARY: Inhibition of NS5A L31M mutant in patient derived HCV genotype 2b MD2b-1 infected in human HuH7 replicon cells assessed as reduction in viral replication after 3 days by luciferase reporter gene assay
pEC50: −log10 of the molar value.
pEC50 for assorted compounds

| SMILES_STRUCTURE | pEC50 |
| --- | --- |
| COC(=O)N[C@H](C(=O)N1CCC[C@H]1c1ncc(-c2cc3c4c(ccc5cc(-c6cnc([C@@H]7CCCN7C(=O)[C@@H](NC(=O)OC)C(C)C)[nH]6)cc(c54)OC3)c2)[nH]1)C(C)C | 7.99 |
| COC(=O)N[C@H](C(=O)N1CCC[C@H]1c1ncc(-c2cc3c4c(c2)OCc2cc(-c5cnc([C@@H]6CCCN6C(=O)[C@H](NC(=O)OC)c6ccccc6)[nH]5)cc(c2-4)OC3)[nH]1)C1CCOCC1 | 10.24 |
| COC(=O)N[C@H](C(=O)N1CCC[C@H]1c1ncc(-c2ccc3c(c2)COc2cc4c(ccc5nc([C@@H]6CCCN6C(=O)[C@@H](NC(=O)OC)C(C)C)[nH]c54)cc2-3)[nH]1)C(C)C | 9.79 |
| COC(=O)N[C@H](C(=O)N1CCC[C@H]1c1ncc(-c2cc3c4c(c2)OCc2cc(-c5cnc([C@@H]6CCCN6C(=O)[C@H](NC(=O)OC)c6ccccc6)[nH]5)cc(c2-4)OC3)[nH]1)C(C)C | 10.12 |
| COC(=O)N[C@@H](C(=O)N1CCC[C@H]1c1ncc(-c2cc3c4c(c2)OCc2cc(-c5cnc([C@@H]6CCCN6C(=O)[C@H](NC(=O)OC)c6ccccc6)[nH]5)cc(c2-4)OC3)[nH]1)c1ccccc1 | 10.66 |
| COC(=O)N[C@H](C(=O)N1CCC[C@H]1c1nc2ccc3cc4c(cc3c2[nH]1)OCc1cc(-c2cnc([C@@H]3CCCN3C(=O)[C@H](NC(=O)OC)c3ccccc3)[nH]2)ccc1-4)C(C)C | 10.80 |

----------
EC50 for assorted compounds
# ASSAY_SUMMARY: Inhibition of NS5A in HCV genotype 5a SA13 infected in human HuH7 replicon cells assessed as reduction in viral replication after 3 days by luciferase reporter gene assay

| SMILES_STRUCTURE | EC50, pM |
| --- | --- |
| COC(=O)N[C@H](C(=O)N1CCC[C@H]1c1ncc(-c2cc3c4c(c2)OCc2cc(-c5cnc([C@@H]6CCCN6C(=O)[C@@H](NC(=O)OC)C(C)C)[nH]5)cc(c2-4)OC3)[nH]1)C(C)C | 56 |
| COC[C@H]1C[C@@H](c2nc(-c3ccc4c(c3)COc3cc5c(ccc6nc([C@@H]7CC[C@H](C)N7C(=O)[C@@H](NC(=O)OC)C(C)C)[nH]c65)cc3-4)c[nH]2)N(C(=O)[C@H](NC(=O)OC)c2ccccc2)C1 | 54 |
| COC[C@H]1C[C@@H](c2ncc(-c3cc4c5c(c3)OCc3cc(-c6cnc([C@@H]7CC[C@H](C)N7C(=O)[C@@H](NC(=O)OC)C(C)C)[nH]6)cc(c3-5)OC4)[nH]2)N(C(=O)[C@H](NC(=O)OC)c2ccccc2)C1 | 81 |
| COC(=O)N[C@H](C(=O)N1CC2(CC2)C[C@H]1c1nc(-c2ccc3c(c2)C(F)(F)c2cc(-c4ccc5[nH]c([C@@H]6[C@H]7CC[C@H](C7)N6C(=O)[C@@H](NC(=O)OC)C(C)C)nc5c4)ccc2-3)c[nH]1)C(C)C | 150 |

----------
# ASSAY_SUMMARY: Inhibition of NS5A L31M mutant in HCV genotype 2a JFH1 (M31) infected in human HuH7 replicon cells assessed as reduction in viral replication after 3 days by luciferase reporter gene assay
MEASURED_PROPERTY: EC50 (pM)

| SMILES_STRUCTURE | MEASURED_PROPERTY | RECORDED_RESULT |
| --- | --- | --- |
| CCO[C@H]1C[C@@H](c2nc3ccc4cc5c(cc4c3[nH]2)OCc2cc(-c3cnc([C@@H]4CCCN4C(=O)[C@@H](NC(=O)OC)C(C)C)[nH]3)ccc2-5)N(C(=O)[C@@H](NC(=O)OC)C(C)C)C1 | EC50 | 7 |
| COC[C@H]1C[C@@H](c2ncc(-c3ccc4c(c3)COc3cc5c(ccc6nc([C@@H]7C[C@H](COC)CN7C(=O)[C@@H](NC(=O)OC)C(C)C)[nH]c65)cc3-4)[nH]2)N(C(=O)[C@@H](NC(=O)OC)C(C)C)C1 | EC50 | 10 |
| COC(=O)N[C@H](C(=O)N1CCC[C@H]1c1ncc(-c2ccc3c(c2)COc2cc4c(ccc5nc([C@@H]6CC[C@H](C)N6C(=O)[C@@H](NC(=O)OC)C(C)C)[nH]c54)cc2-3)[nH]1)C(C)C | EC50 | 19 |
| COC[C@H]1C[C@@H](c2nc3ccc4cc5c(cc4c3[nH]2)OCc2cc(-c3cnc([C@@H]4C[C@H](C)CN4C(=O)[C@@H](NC(=O)OC)C(C)C)[nH]3)ccc2-5)N(C(=O)[C@@H](NC(=O)OC)C(C)C)C1 | EC50 | 9 |
| COC[C@H]1C[C@@H](c2nc3ccc4cc5c(cc4c3[nH]2)OCc2cc(-c3cnc([C@@H]4CCCN4C(=O)[C@@H](NC(=O)OC)C(C)C)[nH]3)ccc2-5)N(C(=O)[C@@H](NC(=O)OC)C(C)C)C1 | EC50 | 8 |
| COC[C@H]1C[C@@H](c2nc3ccc4cc5c(cc4c3[nH]2)OCc2cc(-c3cnc([C@@H]4CC[C@H](C)N4C(=O)[C@@H](NC(=O)OC)C(C)C)[nH]3)ccc2-5)N(C(=O)[C@@H](NC(=O)OC)C(C)C)C1 | EC50 | 12 |
| COC(=O)N[C@H](C(=O)N1[C@@H](C)CC[C@H]1c1ncc(-c2ccc3c(c2)COc2cc4c(ccc5nc([C@@H]6CC[C@H](C)N6C(=O)[C@@H](NC(=O)OC)C(C)C)[nH]c54)cc2-3)[nH]1)C(C)C | EC50 | 14 |
| COC(=O)N[C@H](C(=O)N1CCC[C@H]1c1ncc(-c2ccc3c(c2)COc2cc4c(ccc5nc([C@@H]6C[C@H](C)CN6C(=O)[C@@H](NC(=O)OC)C(C)C)[nH]c54)cc2-3)[nH]1)C(C)C | EC50 | 7 |

Where these numbers come from: BindingDB's records for doi:10.1016/j.bmcl.2019.04.027
